Target Or System: rat mGlu2 receptor (Rattus norvegicus (Rat), UniProt P31421)
Sequence (P31421 19-872): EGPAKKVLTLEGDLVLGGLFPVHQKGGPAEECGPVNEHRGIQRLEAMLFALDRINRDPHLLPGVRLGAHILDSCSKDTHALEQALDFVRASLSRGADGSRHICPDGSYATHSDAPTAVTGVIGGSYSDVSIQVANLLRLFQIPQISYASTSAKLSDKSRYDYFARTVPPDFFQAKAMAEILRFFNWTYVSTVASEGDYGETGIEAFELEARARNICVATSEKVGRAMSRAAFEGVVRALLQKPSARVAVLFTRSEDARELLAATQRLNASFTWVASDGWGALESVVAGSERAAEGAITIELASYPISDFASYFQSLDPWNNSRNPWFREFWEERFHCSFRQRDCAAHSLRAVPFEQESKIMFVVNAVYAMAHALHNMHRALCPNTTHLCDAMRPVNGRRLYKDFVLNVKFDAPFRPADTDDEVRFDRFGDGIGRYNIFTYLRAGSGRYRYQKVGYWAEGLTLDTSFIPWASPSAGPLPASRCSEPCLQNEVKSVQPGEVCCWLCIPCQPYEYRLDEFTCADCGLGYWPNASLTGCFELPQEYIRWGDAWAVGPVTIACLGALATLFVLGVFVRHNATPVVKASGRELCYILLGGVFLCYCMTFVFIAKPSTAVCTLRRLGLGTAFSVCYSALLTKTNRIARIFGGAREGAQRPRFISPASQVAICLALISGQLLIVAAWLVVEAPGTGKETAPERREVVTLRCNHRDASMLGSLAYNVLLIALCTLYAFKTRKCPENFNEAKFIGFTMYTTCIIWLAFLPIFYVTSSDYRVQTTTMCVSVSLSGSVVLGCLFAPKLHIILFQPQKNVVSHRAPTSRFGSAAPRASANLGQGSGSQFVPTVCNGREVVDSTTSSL
Experiment Notes: mGlu2 in vitro GIRK thallium flux assay
Type: cell-based
Applied Conditions: read-out: mGlu2 EC50 (μM) (60 min); NAM; 60 min compound incubation; EC80 glutamate; HEK-293 GIRK cells
Listing of recorded EC50 by entry.
Form entry: value (µM) — number only.

Reference set, count: 3
| Compound | Result Unit | EC50 |
| --- | --- | --- |
| Cc1ccccc1-c1cc(C(F)(F)F)nc(-c2cccc(-c3ccc(F)c(C(=O)O)c3)c2)n1 [Example 91] | µM | 0.28 |
| O=C(O)c1cc(-c2ccc(-c3nc(-c4ccc(C(F)(F)F)nc4)cc(C(F)(F)F)n3)cc2)ccc1Cl [Example 83] | µM | 1.23 |
| O=C(O)c1cccc(-c2cccc(-c3nc(-c4ccoc4)cc(C(F)(F)F)n3)c2)c1 [Example 115] | µM | 0.12 |

Could you share which EC50 value was measured for O=C1CC(c2ccnc(-c3ccccc3)c2)=Nc2ccc(C(F)(F)F)cc2N1 [Example 198] ?
0.26

Try this compound too: O=C(O)c1cc(F)cc(-c2cccc(-c3nc(-c4ccco4)cc(C(F)(F)F)n3)c2)c1 [Example 89]
0.14

Try this compound too: O=C(O)c1cc(-c2cccc(Sc3nc(-c4ccco4)cc(C(F)(F)F)n3)c2)ccc1F [Example 129]
3.25

* * *

Target Or System: rat mGlu2 receptor (Rattus norvegicus (Rat), UniProt P31421)
Experiment Notes: mGlu2 in vitro GIRK thallium flux assay
Format: cell-based
Applied Conditions: mGlu2 EC50 (μM) (60 min), NAM; 60 min compound incubation; EC80 glutamate; HEK-293 GIRK cells
Listing of recorded EC50 by entry.

Could you share which EC50 value was measured for `O=C(O)c1ccc(F)c(-c2cccc(-c3nc(-c4ccccc4)n(-c4ccccc4)n3)c2)c1` ?
> 10 µM

Try this compound too: `O=C(O)c1cccc(-c2cccc(-c3csc(-c4ccccc4)n3)c2)c1`
0.2 µM

Try this compound too: `O=C(O)c1cccc(-c2cccc(-c3coc(-c4ccccc4)n3)c2)c1`
> 10 µM

Try this compound too: Cc1cc2c(cc1C(F)(F)F)NC(=O)CC(c1cccc(-n3ccc4ccccc43)c1)N2 (racemic) [Example 167B]
> 10 µM

* * *

Target Or System: rat mGlu2 receptor (Rattus norvegicus (Rat))
Experiment Notes: mGlu2 in vitro GIRK thallium flux assay
Assay type: cell-based
Applied Conditions: NAM; 2.5 min compound incubation; EC80 glutamate; HEK-293 GIRK cells; read-out: mGlu2 EC50 (μM) (2.5 min)
Listing of recorded EC50 by entry.
Form entry: value (µM) — number only.

Reference set, count: 3
| Chemical Structure | Target Or System | Obs Value |
| --- | --- | --- |
| Cc1cccc(-c2cc(C(F)(F)F)nc(-c3cccc(-c4ccc(F)c(C(=O)O)c4)c3)n2)c1 | rat mGlu2 receptor (Rattus norvegicus (Rat)) | 2.79 |
| O=C(O)c1cc(-c2cccc(-c3nc(-c4ccc(Cl)cc4F)cc(C(F)(F)F)n3)c2)ccc1F | rat mGlu2 receptor (Rattus norvegicus (Rat)) | 4.08 |
| O=C(O)c1cc(-c2cccc(-c3nsc(-c4ccccc4)n3)c2)ccc1F | rat mGlu2 receptor (Rattus norvegicus (Rat)) | 0.1 |

Now for the molecule whose EC50 we want.
Could you share which EC50 value was measured for `O=C(O)c1cc(-c2cccc(-c3csc(-c4cccs4)n3)c2)ccc1F` ?
1.5

* * *

Experiment Notes: Plasma stability in vitro assay
Assay type: in vitro ADME
Applied Conditions: rat plasma, 100 μM, 37.5° C.
Listing of recorded Plasma Stability, Percent Remaining @ 1 hour by entry.
Form entry: value (%) — number only.

Could you share which Plasma Stability, Percent Remaining @ 1 hour value was measured for `O=C(O)c1ccc(F)c(-c2cccc(-c3nc(-c4ccoc4)cc(C(F)(F)F)n3)c2)c1` ?
93

Try this compound too: `Cc1cc2c(cc1C(F)(F)F)NC(=O)CC(c1cccc(Sc3ncccn3)c1)=N2`
99

Try this compound too: `COc1ccc(-c2cc(C(F)(F)F)nc(-c3cccc(-c4ccc(F)c(C(=O)O)c4)c3)n2)cc1`
97

Try this compound too: `O=C(O)c1cc(-c2cccc(-c3nc(-c4ccsc4)cc(C(F)(F)F)n3)c2)ccc1F`
83

Try this compound too: `O=C(O)c1cc(-c2cccc(-c3nc(-c4ccccc4)cc(C(F)(F)F)n3)c2)ccc1F`
100

Try this compound too: `O=C(O)c1cc(-c2cccc(-c3csc(-c4ccccc4)n3)c2)ccc1F`
93

Try this compound too: `O=C(O)c1ccc(F)c(-c2cccc(-c3nc(-c4ccc(C(F)(F)F)nc4)cc(C(F)(F)F)n3)c2)c1`
86

Try this compound too: `Cc1cc2c(cc1C(F)(F)F)NC(=O)CC(c1cccc(S(=O)(=O)c3ncccn3)c1)=N2`
66

Try this compound too: `O=C(O)c1cc(F)cc(-c2cccc(-c3csc(-c4ccccc4)n3)c2)c1`
98

* * *

Listing of recorded EC50 by entry.
Target Or System: rat mGlu3 receptor (Rattus norvegicus (Rat), UniProt P31422)
Sequence (P31422 23-879): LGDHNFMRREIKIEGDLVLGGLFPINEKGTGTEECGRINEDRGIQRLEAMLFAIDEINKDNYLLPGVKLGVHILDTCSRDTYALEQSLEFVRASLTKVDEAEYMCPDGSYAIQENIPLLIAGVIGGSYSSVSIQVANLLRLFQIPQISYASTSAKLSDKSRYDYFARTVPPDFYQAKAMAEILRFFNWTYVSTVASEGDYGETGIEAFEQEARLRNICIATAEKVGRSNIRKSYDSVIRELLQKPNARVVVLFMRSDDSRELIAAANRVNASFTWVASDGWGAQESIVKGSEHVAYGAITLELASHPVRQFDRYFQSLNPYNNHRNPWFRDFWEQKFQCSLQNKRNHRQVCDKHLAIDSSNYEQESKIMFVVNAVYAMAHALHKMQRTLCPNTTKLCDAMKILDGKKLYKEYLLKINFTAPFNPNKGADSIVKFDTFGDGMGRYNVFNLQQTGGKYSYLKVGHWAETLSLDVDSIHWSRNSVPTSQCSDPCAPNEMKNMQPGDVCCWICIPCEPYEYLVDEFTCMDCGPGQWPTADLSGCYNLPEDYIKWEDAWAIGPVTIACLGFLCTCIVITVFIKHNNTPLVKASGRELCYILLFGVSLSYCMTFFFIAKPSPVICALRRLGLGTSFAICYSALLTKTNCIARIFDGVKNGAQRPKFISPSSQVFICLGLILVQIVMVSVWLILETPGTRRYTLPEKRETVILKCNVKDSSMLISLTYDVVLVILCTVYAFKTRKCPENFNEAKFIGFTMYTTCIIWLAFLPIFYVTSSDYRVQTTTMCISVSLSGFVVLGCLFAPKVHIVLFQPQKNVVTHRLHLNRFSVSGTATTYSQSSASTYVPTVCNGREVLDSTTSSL
Experiment Notes: mGlu3 in vitro GIRK thallium flux assay
Format: cell-based
Applied Conditions: NAM; 2.5 min compound incubation; EC80 glutamate; HEK-293 GIRK cells
Form entry: value (µM) — number only.

Reference set, count: 2
| Chemical Structure | EC50 [µM] |
| --- | --- |
| O=C(O)c1cc(F)cc(-c2cccc(-c3nc(-c4ccccc4)cc(C(F)(F)F)n3)c2)c1 | 1.9 |
| O=C1CC(c2ccnc(Cl)c2)=Nc2ccc(C(F)(F)F)cc2N1 | 0.28 |

Could you share which EC50 value was measured for `O=C(O)c1cc(-c2cccc(-c3nc(-c4ccccc4)n(-c4ccccc4)n3)c2)ccc1F` ?
5.8

Try this compound too: `O=C(O)c1cc(-c2cccc(-c3nccc(-c4ccoc4)n3)c2)ccc1F`
1.38

* * *

Target Or System: UniProtKB P31421
Experiment Notes: mGlu2 in vitro GIRK thallium flux assay
Assay type: cell-based
Applied Conditions: mGlu2 EC50 (μM) (60 min), NAM; 60 min compound incubation; EC80 glutamate; HEK-293 GIRK cells
Quantity Name: EC50 (µM)
Form entry: value (µM) — number only.

Item: `COc1ccc(-c2nc(-c3cccc(-c4cccc(C(=O)O)c4)c3)cs2)cc1` Test system: UniProtKB P31421 Read-out: EC50 Value: ?
0.67

Try this molecule too: `Cc1cc2c(cc1C(F)(F)F)NC(=O)CC(c1cccc(Oc3ccccc3)c1)=N2`
1.19

Try this molecule too: `O=C(O)c1cc(F)cc(-c2cccc(-c3csc(-c4ccccc4)n3)c2)c1`
0.35

Try this molecule too: `O=C(O)c1cc(-c2cccc(-c3nsc(-c4ccccc4)n3)c2)ccc1F`
0.05

Try this molecule too: Cc1cc2c(cc1C(F)(F)F)NC(=O)CC(c1cccc(CCCO)c1)N2 (racemic)
4.43

Try this molecule too: `O=Cc1cc(-c2cccc(-c3csc(-c4ccccc4)n3)c2)ccc1F`
1.55

Try this molecule too: `O=C(O)c1cc(-c2cccc(-c3csc(-c4ccccc4)n3)c2)ccc1F`
0.48

Try this molecule too: `Cc1cc2c(cc1C(F)(F)F)NC(=O)CC(c1cccc(OCc3ccccc3)c1)=N2`
2.36

* * *

Listing of recorded EC50 by entry.
Target Or System: rat mGlu2 receptor (Rattus norvegicus (Rat), UniProt P31421)
Experiment Notes: mGlu2 in vitro GIRK thallium flux assay
Format: cell-based
Applied Conditions: read-out: mGlu2 EC50 (μM) (60 min); NAM; 60 min compound incubation; EC80 glutamate; HEK-293 GIRK cells
Form entry: value (µM) — number only.

Reference set, count: 3
| Chemical Structure | Obs Value |
| --- | --- |
| COc1ccc(-c2cc(C(F)(F)F)nc(-c3cccc(-c4ccc(F)c(C(=O)O)c4)c3)n2)cn1 | 0.35 |
| O=C(O)c1cc(-c2cccc(-c3nc(-c4cc5ccccc5s4)cc(C(F)(F)F)n3)c2)ccc1F | 0.88 |
| O=C(O)c1cc(-c2cccc(-c3nc(-c4ccc(Cl)cc4F)cc(C(F)(F)F)n3)c2)ccc1F | 0.65 |

Could you share which EC50 value was measured for `O=C(O)c1ccc(-c2ccc(-c3nc(-c4ccc(C(F)(F)F)nc4)cc(C(F)(F)F)n3)cc2)cc1` ?
0.44

Try this compound too: `COc1ccc(-c2cccc(-c3nc(-c4ccco4)cc(C(F)(F)F)n3)c2)cc1C(=O)O`
2.49

Try this compound too: `CCOC(=O)/C=C/c1cccc(C2=Nc3cc(C)c(C(F)(F)F)cc3NC(=O)C2)c1`
3.26

Try this compound too: `O=C1CC(c2ccnc(Br)c2)=Nc2ccc(-c3ccc(C(F)(F)F)cc3C(F)(F)F)cc2N1`
3.47

Try this compound too: `O=C(O)c1ccc(-c2cccc(-c3nc(-c4ccc(C(F)(F)F)nc4)cc(C(F)(F)F)n3)c2)c(Cl)c1`
1.18

Try this compound too: `O=C(O)c1cc(F)cc(-c2cccc(-c3nc(-c4ccc(C(F)(F)F)nc4)cc(C(F)(F)F)n3)c2)c1`
0.09

Try this compound too: `O=c1[nH]c(-c2cc(-c3cccc(-c4nc(-c5ccoc5)cc(C(F)(F)F)n4)c3)ccc2F)no1`
0.73
